# Tested on: CCRF-CEM
# EXPERIMENT DESCRIPTION: NCI tumour cell line growth inhibition, 48 h
Active and inactive are the calls of the source. Cut-off read from the data, not from the text of the source: active = GI50 up to about 1.1 µM and inactive = higher. *1 amine or outer side, *2 acyl side, *3 side chain or, on linkers, in order; H or OH if unused. Where a SMILES comes first, the peptide text is derived from it. Bridges are numbered along the chain shown (N, C = ends). Roman numbers before positions name the chains, in order. [ ]: non-standard residue; d: D form. Actinocin(9to1) = Cc1c2oc3c(C)ccc(C(=O)[*:1])c3nc-2c(C(=O)[*:2])c(N)c1=O; NMeV = CN[CH](C(=O)O)C(C)C; Sar = CNCC(=O)O
Outcomes: YES for active, NO for inactive

>>> category_label("NCCCOc1ccc([N+](=O)[O-])cc1Cl")
"NO"
>>> category_label("CC(=O)NC1C(OC(C)C(=O)NC(C)C(=O)NC(CCC(=O)NCCCCCNc2ccc([N+](=O)[O-])c3[nH]c4ccccc4c(=O)c23)C(N)=O)C(O)C(CO)OC1(C)OCc1ccccc1 (stereo not drawn)")
"NO"
>>> category_label("C=CC(Br)(CBr)CCC1OC1(C)C (stereo not drawn)")
"NO"
>>> category_label("N=C1NC2(O)C(=O)c3ccccc3C2(O)N1 (stereo not drawn)")
"NO"
>>> category_label("c1ccc2c(c1)CCc1cc3cc4c(nc3nc1-2)-c1ccccc1CC4")
"NO"
>>> category_label("COc1cc(CNc2nc3cc(C(F)(F)F)ccc3nc2C)cc(OC)c1OC")
"NO"
>>> category_label("COc1ccc(COCC[C@H](C)OC2OC(CO[Si](C)(C)C(C)(C)C)C(OC(=O)CCCN=[N+]=[N-])C(OC(=O)CCCN=[N+]=[N-])C2OC(=O)CCCN=[N+]=[N-])cc1 (stereo partly drawn)")
"NO"
>>> category_label("COCc1nc2c(OC)c(-c3nc4ccc(N5CCN(C)CC5)cc4[nH]3)cc(OC)c2[nH]1")
"NO"
>>> category_label("CC(=O)n1cc(C2CC23N=C(c2ccccc2)OC3=O)c2ccccc21 (stereo not drawn)")
"NO"
>>> category_label("CCOC(=O)c1c(N=C(S)Nc2ccccc2)sc2c1CCN(C)C2")
"NO"
>>> category_label("C=CC(C)C1(CCCOCc2ccccc2)C(=S)N2CCC3(CC24CCCC14)OCCO3 (stereo not drawn)")
"NO"
>>> category_label("O=C(O)CN(CC(=O)O)C(C(=O)O)c1ccccc1 (stereo not drawn)")
"NO"
>>> category_label("CCC(=O)CC(=O)CCC(=O)Nc1cc(C)ccc1C")
"NO"
>>> category_label("CCOC(=O)C(C(=O)OCC)S(C)(=O)=O")
"NO"
>>> category_label("O=C(c1nc2ccc(Cl)cc2[nH]c1=O)C(O)c1cccc([N+](=O)[O-])c1 (stereo not drawn)")
"NO"
>>> category_label("Cc1c2oc3c(C)ccc(C(=O)NC4C(=O)NC(C(C)C)C(=O)N5CCCC5C(=O)N(C)CC(=O)N(C)C(C(C)C)C(=O)OC4C)c3nc-2c(C(=O)NC2C(=O)NC(C(C)C)C(=O)N3CCCC3C(=O)N(C)CC(=O)N(C)C(C(C)C)C(=O)OC2C)c(N)c1=O (stereo not drawn) (I: TVP[Sar][NMeV] / II: TVP[Sar][NMeV]; ester I:1-I:C, II:1-II:C; linker I:N-II:N via Actinocin(9to1); configuration not given here)")
"YES"
>>> category_label("COc1ccc2nc3cccc([N+](=O)[O-])c3c(NCCC(=O)O)c2c1")
"NO"
>>> category_label("CCOC1=C2N=C(C(CC)c3ccccc3F)N=C2C(=O)c2ccccc21 (stereo not drawn)")
"NO"
>>> category_label("C[C@H](O)C(=O)SC[C@H](NC(=O)CC[C@@H](N)C(=O)O)C(=O)NCC(=O)O")
"NO"
>>> category_label("O=c1[nH]nc(Cc2ccc(Cl)cc2)n1/N=C/c1ccc([N+](=O)[O-])o1")
"NO"
>>> category_label("O=C(NCCCl)Nc1ccccc1")
"NO"
>>> category_label("Cc1nc2c(sc3nc4ccccc4n32)c(=O)[nH]1")
"NO"
>>> category_label("Cc1cccc(NS(=O)(=O)c2ccc3c(c2)OCCOCCOCCOCCO3)c1")
"NO"

* * *

# Test system: SN12C
# EXPERIMENT DESCRIPTION: NCI tumour cell line growth inhibition, 48 h
Calls of active or inactive are those of the source. Rule as the data show it: active = GI50 up to about 1.1 µM and inactive = higher. *1 amine or outer side, *2 acyl side, *3 side chain or, on linkers, in order; H or OH if unused. Where a SMILES comes first, the peptide text is derived from it. Bridges are numbered along the chain shown (N, C = ends). Roman numbers before positions name the chains, in order. [ ]: non-standard residue; d: D form. Actinocin(9to1) = Cc1c2oc3c(C)ccc(C(=O)[*:1])c3nc-2c(C(=O)[*:2])c(N)c1=O; NMeV = CN[CH](C(=O)O)C(C)C; Sar = CNCC(=O)O
Outcomes: true (active), false (inactive)

>>> category_label("COc1ccc2c(-c3ccc(OCCN(C)C)cc3)c(Oc3ccc(Cl)cc3)c(=O)oc2c1")
"false"
>>> category_label("OCC(O)COCn1cc(Cn2ncc3c(NCc4ccccc4)ncnc32)nn1 (stereo not drawn)")
"false"
>>> category_label("c1ccc2cc(CN3CCC(C4CCN(Cc5ccc6ccccc6c5)CC4)CC3)ccc2c1")
"false"
>>> category_label("C/C=C/C#CC#C/C=C/C=C/C(O)CCO (stereo not drawn)")
"false"
>>> category_label("CCC1CC(C)C(O)/C=C/C=C/CC(C)OC(=O)CC(O)C(OC)C1OC1OC(C)CC(O)(C(C)=O)C1O (stereo not drawn)")
"false"
>>> category_label("O=C1C=CC2(C=C1)O[C@H](COCc1ccccc1)[C@@H](COCc1ccccc1)O2")
"false"
>>> category_label("Fc1cc2nc3n(c2cc1F)C(c1c(Cl)cccc1Cl)SC3 (stereo not drawn)")
"false"
>>> category_label("COc1ccc(/N=C(\\C)c2ccncc2)cc1")
"false"
>>> category_label("O=C1c2ccccc2C(=O)N1/N=C1/SC(=N\\c2ccccc2)/C(=N/c2ccccc2)N1c1ccccc1")
"false"
>>> category_label("C=CCC(O)c1cc(OC)ccc1OC (stereo not drawn)")
"false"
>>> category_label("COc1c(O)ccc(/C=N/NC(=S)NCOCCOC(C)=O)c1OC")
"false"
>>> category_label("CC1=C(C(=O)Nc2ccccc2C)C(c2ccco2)C(C(=O)Nc2ccccc2C)=C(C)N1C")
"false"
>>> category_label("Cc1ccc(C2(c3ccc(C)c(O)c3C)CCN(C)CC2)c(C)c1O")
"false"
>>> category_label("CC(=O)NC1=C(N)C(=O)c2ccccc2C1=O")
"false"
>>> category_label("CCCCN(CCCC)C(=O)C(=O)C(C)C(=O)CC (stereo not drawn)")
"false"
>>> category_label("Cn1cnc([N+](=O)[O-])c1Sc1nnc(C(F)(F)F)n1C")
"false"
>>> category_label("Cc1c2oc3c(C)ccc(C(=O)NC4C(=O)NC(C(C)C)C(=O)N5CCCC5C(=O)N(C)CC(=O)N(C)C(C(C)C)C(=O)OC4C)c3nc-2c(C(=O)NC2C(=O)NC(C(C)C)C(=O)N3CCCC3C(=O)N(C)CC(=O)N(C)C(C(C)C)C(=O)OC2C)c(N)c1=O (stereo not drawn) (I: TVP[Sar][NMeV] / II: TVP[Sar][NMeV]; ester I:1-I:C, II:1-II:C; linker I:N-II:N via Actinocin(9to1); configuration not given here)")
"true"
>>> category_label("COc1ccc(N2C(=O)C3CC(c4ccc(C)cc4)c4c([nH]c5ccccc45)C3C2=O)cc1 (stereo not drawn)")
"false"

* * *

# Test system: SN12C
# EXPERIMENT DESCRIPTION: NCI tumour cell line growth inhibition, 48 h
Active and inactive are the calls of the source. Rule as the data show it: active = GI50 up to about 1.1 µM and inactive = higher.
The entries below are paired with their reported GI50.
PROPERTY MEASURED: GI50

>>> observed("O=c1[nH]c(Br)nc2[nH]nnc12")
"32.4 µM (inactive)"
>>> observed("CN(C)CCNC(=O)c1ccc(Cl)c2c(Nc3ccc(S(N)(=O)=O)cc3)c3ccccc3nc12")
"1.12 µM (active)"
>>> observed("N#C/C(=C1\\OC(=N)C(c2ccc(Cl)cc2Cl)C1=O)c1ccc(Cl)cc1Cl (stereo unspecified)")
"> 100 µM (inactive)"
>>> observed("CCOc1ccc(/C=C2/C(=O)N=C(N)N=C2N)cc1OCC")
"> 100 µM (inactive)"
>>> observed("O=C1NC(=S)NC(=O)C1=Cc1cccc2cc3ccccc3cc12")
"2.32 µM (inactive)"
>>> observed("CCn1ncc2c(=O)n3ncn(-c4ccc(Br)cc4)c3nc21")
"> 100 µM (inactive)"
>>> observed("COc1cc(C=C2C(=O)OC(C)(C)OC2=O)cc(OC)c1OC")
"> 100 µM (inactive)"
>>> observed("O=C(/C=C1/Nc2ccc([N+](=O)[O-])cc2N/C1=C/C(=O)c1ccc(Cl)cc1)c1ccc(Cl)cc1")
"17.7 µM (inactive)"
>>> observed("O=c1[nH]nc(Cc2ccc(Cl)cc2)n1/N=C/c1ccc([N+](=O)[O-])o1")
"3.78 µM (inactive)"
>>> observed("COc1cc(/C=N/N=C(\\N)NO)ccc1O")
"> 100 µM (inactive)"
>>> observed("Cc1nnc2n1-c1ccccc1C(=S)N1CSCC21 (stereo unspecified)")
"> 100 µM (inactive)"
